Target: Integrin alpha-IIb/beta-3 (Homo sapiens, UniProt P05106+P08514)
Sequence (P05106 27-788 limits assumed): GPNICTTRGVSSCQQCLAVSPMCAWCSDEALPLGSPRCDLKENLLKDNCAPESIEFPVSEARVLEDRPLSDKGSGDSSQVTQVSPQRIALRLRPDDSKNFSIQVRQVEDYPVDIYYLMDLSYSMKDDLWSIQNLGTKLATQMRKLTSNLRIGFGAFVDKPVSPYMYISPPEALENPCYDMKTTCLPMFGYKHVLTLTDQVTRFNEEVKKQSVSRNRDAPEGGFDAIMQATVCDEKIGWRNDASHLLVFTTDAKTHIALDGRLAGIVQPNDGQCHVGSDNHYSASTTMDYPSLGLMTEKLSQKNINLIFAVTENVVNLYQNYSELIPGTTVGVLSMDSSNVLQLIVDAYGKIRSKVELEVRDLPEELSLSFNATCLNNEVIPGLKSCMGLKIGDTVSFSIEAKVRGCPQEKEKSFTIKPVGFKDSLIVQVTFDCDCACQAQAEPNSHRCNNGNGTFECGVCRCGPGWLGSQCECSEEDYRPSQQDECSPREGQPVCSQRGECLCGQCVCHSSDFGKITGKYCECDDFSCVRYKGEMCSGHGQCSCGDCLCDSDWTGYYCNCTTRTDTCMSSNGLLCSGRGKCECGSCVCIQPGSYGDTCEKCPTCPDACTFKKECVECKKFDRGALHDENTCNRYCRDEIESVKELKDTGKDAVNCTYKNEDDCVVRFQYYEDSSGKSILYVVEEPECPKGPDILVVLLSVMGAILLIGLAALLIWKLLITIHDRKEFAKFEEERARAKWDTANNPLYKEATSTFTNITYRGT
Sequence (P08514 32-887 limits assumed): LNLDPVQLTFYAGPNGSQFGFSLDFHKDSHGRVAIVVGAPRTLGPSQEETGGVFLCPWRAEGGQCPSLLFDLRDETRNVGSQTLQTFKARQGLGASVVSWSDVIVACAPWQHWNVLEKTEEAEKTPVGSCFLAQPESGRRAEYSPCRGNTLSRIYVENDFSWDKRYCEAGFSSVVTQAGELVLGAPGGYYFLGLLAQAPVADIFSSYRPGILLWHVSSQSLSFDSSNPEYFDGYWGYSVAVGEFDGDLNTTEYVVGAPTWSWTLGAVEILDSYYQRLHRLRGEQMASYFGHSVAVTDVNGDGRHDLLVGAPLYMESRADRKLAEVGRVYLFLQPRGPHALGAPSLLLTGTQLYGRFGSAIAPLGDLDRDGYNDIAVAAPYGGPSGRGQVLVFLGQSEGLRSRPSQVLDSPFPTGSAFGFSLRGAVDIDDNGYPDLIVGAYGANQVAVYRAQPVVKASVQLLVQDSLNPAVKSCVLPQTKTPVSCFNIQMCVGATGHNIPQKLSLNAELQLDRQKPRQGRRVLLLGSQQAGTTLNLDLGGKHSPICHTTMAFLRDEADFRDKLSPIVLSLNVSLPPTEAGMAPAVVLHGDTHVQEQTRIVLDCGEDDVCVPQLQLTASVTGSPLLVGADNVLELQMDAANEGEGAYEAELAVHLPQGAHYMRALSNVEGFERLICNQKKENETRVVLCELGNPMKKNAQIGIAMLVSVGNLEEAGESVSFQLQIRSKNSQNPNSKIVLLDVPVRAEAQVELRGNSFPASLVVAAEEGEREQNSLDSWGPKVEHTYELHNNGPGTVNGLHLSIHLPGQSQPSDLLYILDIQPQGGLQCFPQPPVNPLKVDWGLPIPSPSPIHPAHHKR
Sequence (P08514 891-1039 limits assumed): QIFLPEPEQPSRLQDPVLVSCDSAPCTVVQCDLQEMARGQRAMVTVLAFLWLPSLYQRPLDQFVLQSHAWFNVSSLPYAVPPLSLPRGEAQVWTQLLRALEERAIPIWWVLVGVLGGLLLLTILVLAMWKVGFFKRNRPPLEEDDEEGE
Assay: In vitro inhibition of biotinylated fibrinogen binding to immobilized fibrinogen receptor.
Assay type: protein-complex assay
pIC50: −log10 of the molar value.
endpoint: pIC50

A = O=C(O)C(O)CNC(=O)[C@@H]1CCCN(C(=O)CCC2CCNCC2)C1 (stereo not given in full)
B = O=C(O)C[C@H](NC(=O)[C@@H]1CCCN(C(=O)CCC2CCNCC2)C1)c1ccc(Cl)nc1
C = O=C(O)C[C@@H](NC(=O)[C@@H]1CCCN(C(=O)CCC2CCNCC2)C1)c1ncc(C(F)(F)F)cc1Cl
D = O=C(O)C[C@H](NC(=O)[C@@H]1CCCN(C(=O)CCC2CCNCC2)C1)c1cncc(C#Cc2ccccc2)c1
E = COc1ccccc1-c1cncc(C(CC(=O)O)NC(=O)C2CCCN(C(=O)CCC3CCNCC3)C2)c1 (stereo not given)
[ask] // TODO: order the 5 compounds above by pIC50, descending Provide your answer as the labels ordered per the instruction.
[reply] B, D, A, E, C
(B: 9.85, D: 9.07, A: 8.46, E: 7.92, C: 7.18)

* * *

Target: Integrin alpha-IIb/beta-3 (Homo sapiens, UniProt P05106+P08514)
Experiment: In vitro inhibition of biotinylated fibrinogen binding to immobilized fibrinogen receptor.
pIC50: −log10 of the molar value.
endpoint: pIC50

{"molecule": "O=C(O)C[C@H](NC(=O)[C@@H]1CCCN(C(=O)CCC2CCNCC2)C1)c1ccc(-c2ccsc2)nc1", "pIC50": 9.43}
{"molecule": "COc1ccc(-c2cncc(C(CC(=O)O)NC(=O)C3CCCN(C(=O)CCC4CCNCC4)C3)c2)cc1 (centres undefined)", "pIC50": 7.96}

1 = C[C@H](CC(=O)O)NC(=O)[C@@H]1CCCN(C(=O)CCC2CCNCC2)C1
2 = C#Cc1cncc([C@H](CC(=O)O)NC(=O)[C@@H]2CCCN(C(=O)CCC3CCNCC3)C2)c1
[ask] Could you determine which record has the numerically smaller pIC50? Candidates: 1 and 2 Reply with the label of the item you choose.
[reply] 1
(1: 7.87, 2: 9.62)

* * *

Target: Integrin alpha-IIb/beta-3 (Homo sapiens, UniProt P05106+P08514)
Assay: In vitro inhibition of biotinylated fibrinogen binding to immobilized fibrinogen receptor.
pIC50: −log10 of the molar value.
endpoint: pIC50

Use the examples below as a reference point.
{"compound": "COC(=O)C[C@H](NC(=O)[C@@H]1CCCN(C(=O)CCC2CCNCC2)C1)c1cccnc1", "tgt": "Integrin alpha-IIb/beta-3 (Homo sapiens, UniProt P05106+P08514)", "pIC50": 8.14}
{"compound": "O=C(O)CCNC(=O)[C@@H]1CCCN(C(=O)CCC2CCNCC2)C1", "tgt": "Integrin alpha-IIb/beta-3 (Homo sapiens, UniProt P05106+P08514)", "pIC50": 8.32}

P = O=C(O)C[C@H](NC(=O)[C@@H]1CCCN(C(=O)/C=C/C2CCNCC2)C1)c1cccnc1
Q = O=C(O)CC(NC(=O)C1CCCN(C(=O)CCC2CCNCC2)C1)c1cncc(Br)c1 (configuration not stated)
R = Cc1ccc(-c2cncc(C(CC(=O)O)NC(=O)C3CCCN(C(=O)CCC4CCNCC4)C3)c2)cc1 (configuration not stated)
S = COc1cccc(-c2cncc(C(CC(=O)O)NC(=O)C3CCCN(C(=O)CCC4CCNCC4)C3)c2)c1 (configuration not stated)
T = O=C(O)C[C@@H](NC(=O)[C@@H]1CCCN(C(=O)CCC2CCNCC2)C1)c1cccs1
[ask] Ascending by pIC50, please: list the compounds accordingly. I'd appreciate it if you listed the labels in the requested order.
[reply] R, S, Q, P, T

* * *

Target: Integrin alpha-IIb/beta-3 (Homo sapiens, UniProt P05106+P08514)
Assay: In vitro inhibition of biotinylated fibrinogen binding to immobilized fibrinogen receptor.
pIC50: −log10 of the molar value.
endpoint: pIC50

Please review the following examples before continuing.
{"compound": "O=C(O)CC(NC(=O)C1CCCN(C(=O)CCC2CCNCC2)C1)c1cncc(-c2cccc3ccccc23)c1 (stereo not given)", "assay-value": 7.59}
{"compound": "COc1ncc([C@H](CC(=O)O)NC(=O)[C@@H]2CCCN(C(=O)CCC3CCNCC3)C2)cc1Cl", "assay-value": 8.42}

I = O=C(O)C[C@@H](NC(=O)[C@@H]1CCCN(C(=O)CCC2CCNCC2)C1)c1cnc2ccccc2c1 (stereo in doubt; 33)
II = O=C(O)C[C@@H](NC(=O)[C@@H]1CCCN(C(=O)CCC2CCNCC2)C1)c1ccc(Cl)s1
III = CCOC(=O)C[C@@H](NC(=O)[C@@H]1CCCN(C(=O)CCC2CCNCC2)C1)c1ccc2c(c1)OCO2
IV = O=C(C[C@H](NC(=O)[C@@H]1CCCN(C(=O)CCC2CCNCC2)C1)c1cccnc1)OCCC1CCCCC1
[ask] Please list these in order of increasing pIC50. Thank you! Write out the labels following the order that was asked for.
[reply] III, IV, I, II

* * *

Biological target: Integrin alpha-IIb/beta-3 (Homo sapiens, UniProt P05106+P08514)
Assay: In vitro inhibition of biotinylated fibrinogen binding to immobilized fibrinogen receptor.
endpoint: IC50 (nM)

{"compound": "O=C(O)C[C@H](NC(=O)[C@@H]1CCCN(C(=O)CCC2CCNCC2)C1)c1cncc(-c2ccccc2)c1", "IC50, nM": 0.52}
{"compound": "O=C(O)C[C@@H](NC(=O)[C@@H]1CCCN(C(=O)CCC2CCNCC2)C1)c1ccc2c(c1)OCO2", "IC50, nM": 0.5}

a = O=C(O)CC(NC(=O)C1CCCN(C(=O)CCC2CCNCC2)C1)c1cncc(-c2ccc3ccccc3c2)c1 (centres undefined)
b = O=C(O)CC(NC(=O)C1CCCN(C(=O)CCC2CCNCC2)C1)c1cncc(-c2cc3ccccc3o2)c1 (centres undefined)
[ask] Endpoint returns the identifier whose IC50 is numerically larger, either a or b . Lab note: record the label of whichever item you select.
[reply] a
